Target: Pdr3 (UniProt P33200)
Sequence: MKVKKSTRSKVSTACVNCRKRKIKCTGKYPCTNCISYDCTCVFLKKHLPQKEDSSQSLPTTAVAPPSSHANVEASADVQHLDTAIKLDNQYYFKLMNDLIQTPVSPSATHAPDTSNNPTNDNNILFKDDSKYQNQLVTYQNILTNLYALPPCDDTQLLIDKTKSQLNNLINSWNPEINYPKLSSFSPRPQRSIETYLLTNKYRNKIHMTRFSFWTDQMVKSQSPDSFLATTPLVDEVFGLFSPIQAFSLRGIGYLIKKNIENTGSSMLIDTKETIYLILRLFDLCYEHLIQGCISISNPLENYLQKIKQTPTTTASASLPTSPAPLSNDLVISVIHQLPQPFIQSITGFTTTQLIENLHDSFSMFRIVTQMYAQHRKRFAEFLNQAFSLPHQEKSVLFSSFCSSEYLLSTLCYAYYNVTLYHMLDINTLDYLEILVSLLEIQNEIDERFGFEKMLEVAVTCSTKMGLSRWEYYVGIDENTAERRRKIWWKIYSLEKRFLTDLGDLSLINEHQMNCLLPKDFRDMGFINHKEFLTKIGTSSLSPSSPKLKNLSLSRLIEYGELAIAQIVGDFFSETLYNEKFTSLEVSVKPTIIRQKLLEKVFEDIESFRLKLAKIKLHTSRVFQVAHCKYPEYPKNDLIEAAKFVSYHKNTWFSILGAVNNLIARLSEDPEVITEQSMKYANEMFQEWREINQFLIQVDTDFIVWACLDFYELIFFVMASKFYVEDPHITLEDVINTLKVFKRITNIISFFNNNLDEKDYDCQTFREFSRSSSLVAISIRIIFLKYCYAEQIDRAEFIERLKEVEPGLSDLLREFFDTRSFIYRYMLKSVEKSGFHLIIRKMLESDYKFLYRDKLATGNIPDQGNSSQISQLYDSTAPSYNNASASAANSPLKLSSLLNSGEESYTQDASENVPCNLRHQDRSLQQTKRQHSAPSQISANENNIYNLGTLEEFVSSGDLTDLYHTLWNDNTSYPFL
Assay: PBM E-score (8-mer binding enrichment) (E-score (-0.5 to 0.5)); higher = stronger / more preferred TF binding
Conditions: protein concentration: 200 nM; construct: GST-full length
In all, about 33,000 sequences were measured (“E-score (-0.5 to 0.5)”: median about -0.035, highest 2% from about 0.35 on). This excerpt belongs to a sample that is enriched for the highest values.
attribute-measured: PBM E-score
Reply briefly: the number, and no unit.

Worked examples follow.
CCACGGAA : 0.484
CCCCCGGC : 0.037

Okay, next one:
Exercise: Fill in PBM E-score for record `CCACGGAC`
Solution: 0.34

====

Molecular target: Pdr3 (UniProt P33200)
Sequence: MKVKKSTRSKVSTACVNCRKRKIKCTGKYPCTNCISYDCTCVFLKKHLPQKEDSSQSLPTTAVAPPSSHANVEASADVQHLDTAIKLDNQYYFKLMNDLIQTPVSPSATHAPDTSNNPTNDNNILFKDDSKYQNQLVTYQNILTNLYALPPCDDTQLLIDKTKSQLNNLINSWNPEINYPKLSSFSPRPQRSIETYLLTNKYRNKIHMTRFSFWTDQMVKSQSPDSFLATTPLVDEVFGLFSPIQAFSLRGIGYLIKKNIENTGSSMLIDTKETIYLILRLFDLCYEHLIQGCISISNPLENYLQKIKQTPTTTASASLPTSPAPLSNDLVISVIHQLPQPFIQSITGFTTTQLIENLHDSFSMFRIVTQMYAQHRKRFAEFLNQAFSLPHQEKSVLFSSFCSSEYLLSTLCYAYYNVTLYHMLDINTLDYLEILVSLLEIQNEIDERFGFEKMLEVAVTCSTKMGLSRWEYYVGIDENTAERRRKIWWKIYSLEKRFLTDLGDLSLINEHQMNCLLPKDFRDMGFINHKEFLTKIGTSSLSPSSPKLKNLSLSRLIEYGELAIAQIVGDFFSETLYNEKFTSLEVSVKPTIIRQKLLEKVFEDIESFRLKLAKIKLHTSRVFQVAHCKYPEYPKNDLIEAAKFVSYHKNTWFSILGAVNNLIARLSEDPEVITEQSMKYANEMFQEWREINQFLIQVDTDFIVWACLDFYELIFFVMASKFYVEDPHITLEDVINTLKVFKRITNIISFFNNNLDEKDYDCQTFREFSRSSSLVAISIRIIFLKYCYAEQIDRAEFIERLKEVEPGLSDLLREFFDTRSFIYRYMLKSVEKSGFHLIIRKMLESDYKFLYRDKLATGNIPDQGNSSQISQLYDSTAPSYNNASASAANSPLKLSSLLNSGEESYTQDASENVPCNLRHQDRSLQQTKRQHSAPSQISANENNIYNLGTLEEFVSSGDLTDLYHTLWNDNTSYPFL
Assay: PBM E-score (8-mer binding enrichment) (E-score (-0.5 to 0.5)); higher = stronger / more preferred TF binding
Conditions: protein concentration: 200 nM; construct: GST-full length
Over roughly 33,000 sequences, “E-score (-0.5 to 0.5)” has its median near -0.035; the highest 2% begin near 0.35. The sample as a whole holds a higher share of the highest values than the screen did.
The following sequences are listed with their measured PBM E-score values.
Give the figure only, with no unit attached.

Study these solved cases before continuing.
AATTCCTC : 0.0037
ATTCACCG : 0.254
AAGGAACA : -0.129
GGTTCCAA : 0.273
AATTCCTG : -0.021

Now look at this one.
Exercise: Given `CCGGAACA` , report its PBM E-score on Pdr3 (UniProt P33200).
Solution: 0.471

====

Target: Pdr3 (UniProt P33200)
Sequence: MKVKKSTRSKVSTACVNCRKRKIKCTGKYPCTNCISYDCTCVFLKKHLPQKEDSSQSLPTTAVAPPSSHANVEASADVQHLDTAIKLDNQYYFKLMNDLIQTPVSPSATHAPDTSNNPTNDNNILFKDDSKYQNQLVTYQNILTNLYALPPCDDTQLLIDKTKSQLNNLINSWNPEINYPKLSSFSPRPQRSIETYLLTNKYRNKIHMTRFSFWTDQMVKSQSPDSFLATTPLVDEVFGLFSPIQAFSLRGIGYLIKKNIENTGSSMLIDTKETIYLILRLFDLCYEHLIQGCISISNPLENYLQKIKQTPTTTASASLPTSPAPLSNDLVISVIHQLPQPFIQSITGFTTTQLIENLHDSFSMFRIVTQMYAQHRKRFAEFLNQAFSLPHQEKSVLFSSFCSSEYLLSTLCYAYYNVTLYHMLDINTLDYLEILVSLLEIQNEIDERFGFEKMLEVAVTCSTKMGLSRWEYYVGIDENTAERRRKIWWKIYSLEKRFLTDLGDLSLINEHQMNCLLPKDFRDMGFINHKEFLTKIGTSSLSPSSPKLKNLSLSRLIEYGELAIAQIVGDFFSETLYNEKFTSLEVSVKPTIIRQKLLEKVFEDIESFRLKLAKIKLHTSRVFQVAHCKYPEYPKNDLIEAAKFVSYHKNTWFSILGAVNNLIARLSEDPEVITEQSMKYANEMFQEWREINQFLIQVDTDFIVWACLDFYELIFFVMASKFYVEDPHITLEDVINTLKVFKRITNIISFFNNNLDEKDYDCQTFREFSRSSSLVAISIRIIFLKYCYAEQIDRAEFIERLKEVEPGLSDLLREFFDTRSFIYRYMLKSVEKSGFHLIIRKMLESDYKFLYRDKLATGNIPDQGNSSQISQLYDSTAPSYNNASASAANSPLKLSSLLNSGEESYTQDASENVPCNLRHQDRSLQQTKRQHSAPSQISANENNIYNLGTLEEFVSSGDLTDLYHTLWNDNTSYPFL
Test: PBM E-score (8-mer binding enrichment) (E-score (-0.5 to 0.5)); higher = stronger / more preferred TF binding
Settings: protein concentration: 200 nM; construct: GST-full length
Whole data set: some 33,000 sequences, median “E-score (-0.5 to 0.5)” near -0.035, cut for the highest 2% near 0.35. The entries come from a sample that favours the highest values as a whole.
Entries are sorted into classes by PBM E-score as follows: bottom bin = under 0.05, middle bin = from 0.05 up to 0.3, top bin = 0.3 and over

Solved cases (5 shown):
ACTTTCCC : middle bin
AGAAGCAC : bottom bin
CGCTACCG : middle bin
CACCATAA : bottom bin
CATCCCGG : top bin

Exercise: Quick check: band for `GATCCCGA`
Solution: top bin

Exercise: Which class does `CCTTCCGC` fall in?
Solution: top bin

Exercise: For this sequence, which bin applies? `ATTATCCC`
Solution: middle bin

Exercise: Which class does `GCGGCCGA` fall in?
Solution: middle bin

Exercise: Please indicate the class for `CGCAAGAG` based on its PBM E-score.
Solution: bottom bin

Exercise: Record `CGCGAAAA` — which class?
Solution: middle bin

Exercise: Band assignment needed for `ACATCCGT` please.
Solution: middle bin

Exercise: Class? Entry: `CATCCCAG`
Solution: bottom bin

Exercise: Where would `AGATCCAG` land among the classes by reported PBM E-score?
Solution: middle bin

Exercise: Quick check: band for `CTTGACAC`
Solution: bottom bin

Exercise: read the entry `CCTTCCGA` and state which class it falls under.
Solution: top bin

Exercise: Hi, small favor: classify `ACCAGAAA` by its PBM E-score when you get a moment.
Solution: bottom bin

Exercise: Class? Entry: `GCCGGATA`
Solution: top bin

Exercise: Kindly identify the class of `CCAATGCC` .
Solution: bottom bin

Exercise: Classify this sequence: `ATGAGAAG`
Solution: bottom bin

Exercise: Hi, small favor: classify `TACGGAGA` by its PBM E-score when you get a moment.
Solution: middle bin

Exercise: Dear colleague, I would appreciate it if you could identify the bin for `AGATCCGC` and reply at your convenience.
Solution: top bin

Exercise: Class (by measured PBM E-score) for `ACTTTCCG`
Solution: top bin

Exercise: Band assignment needed for `ACTTCCAC` please.
Solution: bottom bin

Exercise: Input `GGTTGCCA` ; output its category
Solution: middle bin

Exercise: Kindly identify the class of `AAGCAGCG` .
Solution: bottom bin

Exercise: Which class holds `CGGAACTA` ?
Solution: top bin

Exercise: Which of the defined bands does the recorded PBM E-score of `CCTTTCCG` sit within?
Solution: top bin
